Tested on: IFNγ-induced NO production in RAW 264.7 cells
Assay: Nitric oxide suppression assay (IFNγ-induced NO production, Griess nitrite readout)
Format: cell-based, mouse
Marks after values point to notes of the source that are not given here.
Entries annotated with measured NO IC50 Rel. to RTA 402

>>> measured_result("CC1(C)CC[C@]2(N3CCOC3=O)CC[C@]3(C)[C@H](C(=O)C=C4[C@@]5(C)C=C(C#N)C(=O)C(C)(C)[C@@H]5CC[C@]43C)[C@@H]2C1")
"1.23 ± 0.23^e fold"
>>> measured_result("CC1(C)CC[C@]2(n3cncn3)CC[C@]3(C)[C@H](C(=O)C=C4[C@@]5(C)C=C(C#N)C(=O)C(C)(C)[C@@H]5CC[C@]43C)[C@@H]2C1")
"1.35 ± 0.26^d fold"
>>> measured_result("CC(=O)N(C)C[C@]12CCC(C)(C)C[C@H]1[C@H]1C(=O)C=C3[C@@]4(C)C=C(C#N)C(=O)C(C)(C)[C@@H]4CC[C@@]3(C)[C@]1(C)CC2")
"0.49 ± 0.14^e fold"
>>> measured_result("CC1(C)CC[C@]2(Cn3cnnc3)CC[C@]3(C)[C@H](C(=O)C=C4[C@@]5(C)C=C(C#N)C(=O)C(C)(C)[C@@H]5CC[C@]43C)[C@@H]2C1")
"13.72 ± 3.47^e fold"

stdin: State the recorded NO IC50 Rel. to RTA 402 for this entry: CNC[C@]12CCC(C)(C)C[C@H]1[C@H]1C(=O)C=C3[C@@]4(C)C=C(C#N)C(=O)C(C)(C)[C@@H]4CC[C@@]3(C)[C@]1(C)CC2
stdout: 1.60 ± 0.23^e fold

* * *

System: AREc32 reporter cell line (luciferase reporter under eight copies of the rat GSTA2 ARE sequence)
Test: AREc32 luciferase reporter activation
Assay type: cell-based, human
Details: comparison compound CC2; average of ratios from three replicate experiments
Measured AREc32 Relative to CC in Same Experiment (Mean ± SD) values are reported for all entries that follow.
Reply with just the number.

Some solved cases for reference:
>>> measured_result("CC1(C)CC[C@]2(Cn3cnnn3)CC[C@]3(C)[C@H](C(=O)C=C4[C@@]5(C)C=C(C#N)C(=O)C(C)(C)[C@@H]5CC[C@]43C)[C@@H]2C1")
0.356
>>> measured_result("CC1(C)CC[C@]2(Cn3cccn3)CC[C@]3(C)[C@H](C(=O)C=C4[C@@]5(C)C=C(C#N)C(=O)C(C)(C)[C@@H]5CC[C@]43C)[C@@H]2C1")
0.954
>>> measured_result("CC1(C)CC[C@]2(Cn3ccnc3)CC[C@]3(C)[C@H](C(=O)C=C4[C@@]5(C)C=C(C#N)C(=O)C(C)(C)[C@@H]5CC[C@]43C)[C@@H]2C1")
1.009
>>> measured_result("Cc1cn(C[C@]23CCC(C)(C)C[C@H]2[C@H]2C(=O)C=C4[C@@]5(C)C=C(C#N)C(=O)C(C)(C)[C@@H]5CC[C@@]4(C)[C@]2(C)CC3)nn1")
0.802
>>> measured_result("CC1(C)CC[C@]2(Cn3cncn3)CC[C@]3(C)[C@H](C(=O)C=C4[C@@]5(C)C=C(C#N)C(=O)C(C)(C)[C@@H]5CC[C@]43C)[C@@H]2C1")
0.649

Switching to the query record.
stdin: Value lookup for AREc32 Relative to CC in Same Experiment (Mean ± SD); key = CC1(C)CC[C@]2(Cn3ccnn3)CC[C@]3(C)[C@H](C(=O)C=C4[C@@]5(C)C=C(C#N)C(=O)C(C)(C)[C@@H]5CC[C@]43C)[C@@H]2C1
stdout: 0.522
